# key: entry, value: melting point
measured metric: melting point

In [3]: df
Out[3]:
                                   compound  recorded_measurement
0  O=c1c(-c2ccccc2)coc2c(Cl)c(O)ccc12 [P(A2,B1), 8-Chloro-7-hydroxy-3-phenylchromen-4-one]         242 to 244 °C
1  O=c1c(-c2ccccc2)coc2c(Br)c(O)ccc12 [P(A3,B1), 8-Bromo-7-hydroxy-3-phenylchromen-4-one]         256 to 258 °C
2  O=c1c(-c2ccccc2)coc2cc(O)c(Cl)cc12 [P(A5,B1), 6-Chloro-7-hydroxy-3-phenylchromen-4-one]         279 to 280 °C
3  O=c1c(-c2ccccc2)coc2cc(O)c(Br)cc12 [P(A6,B1), 6-Bromo-7-hydroxy-3-phenylchromen-4-one]  296 to 297 °C (dec.)
